test: Paraffin wax solubility test; assay type: physicochemical; details: 2.0 g paraffin wax in 98 g solvent, 25 °C, up to 24-hours stirring

# Molecule, Observation
records = [
    ("C[S+](C)[O-] [dimethyl sulfoxide]", "undissolved after"),
    ("CCCCCCCCCC(=O)N(C)C [N,N-dimethyldecanamide]", "undissolved after"),
    ("CCCCCCCCCCCC(=O)OC [methyl laurate]", "stable at 25° c."),
    ("CCCCCCCCCCCC(=O)OCC(CC)CCCC (centres unmarked) [2-ethylhexyl laurate]", "stable at 25° c."),
    ("CCCCCCCCCCCCCC(=O)OC(C)C [isopropyl myristate]", "stable at 25° c."),
    ("O=C1CCCCC1", "undissolved after"),
    ("OCC1CCCO1 (centres unmarked) [tetrahydrofurfural alcohol]", "undissolved after"),
    ("CCCCCCCCCCCC(=O)OC(C)C [isopropyl laurate]", "stable at 25° c."),
    ("CC1COC(=O)O1 (centres unmarked) [propylene carbonate]", "undissolved after"),
    ("CCCCCCCCCCCC(=O)OCC(C)C [isobutyl laurate]", "stable at 25° c."),
    ("CCCCCCCCCCCC(=O)OCCC(C)C [isoamyl laurate]", "stable at 25° c."),
]
